Test system: Moraxella catarrhalis A894
Test: Bacterial growth minimal inhibitory concentration (microdilution, CLSI M7-A7)
Type: cell-based
Conditions: Moraxella catarrhalis, A894; quinolone-sensitive strain; cation-adjusted Mueller-Hinton Broth
Experimental: Minimal Inhibitory Concentrations (MICs; […]) were determined in cation-adjusted Mueller-Hinton Broth by a microdilution method following the description given in “Methods for Dilution Antimicrobial Susceptibility Tests for Bacteria that Grow Aerobically”, Approved standard, 7th ed., Clinical and Laboratory Standards Institute (CLSI) Document M7-A7, Wayne, Pa., USA, 2006.
value.type: MIC (mg/L)
Report as a plain number; the unit mg/L is understood.

Task: // query MIC value for entry CC(C)=Cc1ccc2c(c1)C(=O)OC2CC(=O)NCCn1c(=O)ccc2ccc(F)cc21 (racemic)
Output: 0.5

Task: Which MIC value is on record for O=C1OC(C(=O)NCCCn2c(=O)ccc3ccc(F)cc32)c2ccc(C3=CCCCC3)cc21 (racemic) ?
Output: 2

Task: Look up MIC for this molecule: O=C(CC1OC(=O)c2cc(-c3cc(F)ccc3F)ccc21)NCCn1c(=O)ccc2ccc(F)cc21 (racemic)
Output: 0.125

Task: Please look up its MIC: O=C(Cn1c(=O)ccc2ccc(F)cc21)NCCC1OC(=O)c2cc(C3=CCCCC3)ccc21 (racemic)
Output: 1

Task: Reported MIC for O=C(CC1OC(=O)c2cc(-c3ccccc3)ccc21)NCCn1c(=O)ccc2ccc(F)cc21 (racemic) : what is it?
Output: 8

Task: What measured MIC goes with O=C(Cn1c(=O)ccc2ccc(F)cc21)NCCC1OC(=O)c2cc(-c3cc(F)ccc3F)ccc21 (racemic) ?
Output: 0.25

====

system: Streptococcus pneumonia ATTC49619; assay: Bacterial growth minimal inhibitory concentration (microdilution, CLSI M7-A7); type: cell-based; conditions: Streptococcus pneumoniae, ATTC49619; quinolone-sensitive strain; cation-adjusted Mueller-Hinton Broth; read-out: MIC for S. pneumonia ATTC49619
value.type: MIC
Provide the measurement as a number trailed by its unit.

Task: Consider the compound O=C(CC1OC(=O)c2cc(-c3cc(F)cc(F)c3)ccc21)NCCn1c(=O)ccc2ccc(F)cc21 (racemic) and give its measured MIC.
Output: 0.25 mg/L

Task: Item CC(C)=Cc1ccc2c(c1)C(=O)OC2CCNC(=O)Cn1c(=O)ccc2ccc(F)cc21 (racemic) has what recorded MIC?
Output: 1 mg/L

Task: Field request: MIC | item: O=C(Cn1c(=O)ccc2ccc(F)cc21)NCCC1OC(=O)c2cc(C3=CCCC3)ccc21 (racemic)
Output: 4 mg/L

====

test system: Streptococcus pneumonia ATTC49619; experiment: Bacterial growth minimal inhibitory concentration (microdilution, CLSI M7-A7); assay type: cell-based; settings: Streptococcus pneumoniae, ATTC49619; quinolone-sensitive strain; cation-adjusted Mueller-Hinton Broth; read-out: MIC for S. pneumonia ATTC49619
value.type: MIC (µg/mL)
The reply should contain only the number, in µg/mL.

Task: # value lookup — system Streptococcus pneumonia ATTC49619, readout MIC, item COc1ccc2ncc(=O)n(CCNCCC3OC(=O)c4cc(-c5ccccc5)ccc43)c2n1 (racemic)
Output: 0.5

Task: Request - read-out MIC | tested on Streptococcus pneumonia ATTC49619 | compound O=C(CC1OC(=O)c2cc(-c3cccc(F)c3F)ccc21)NCCn1c(=O)ccc2ccc(F)cc21 (racemic)
Output: 0.5

Task: # query: MIC | item O=C1OC(CCNCCn2c(=O)ccc3ccc(F)cc32)c2ccc(-c3ccc(F)cc3F)cc21 (racemic) | system: Streptococcus pneumonia ATTC49619
Output: 0.5
